Source: patent US10093653B2

Study conditions: 12 h, pH 7.4
Endpoint label: Solubility (µM)

In the examples that follow, each entry is paired with its recorded Solubility.
COc1ccc(NC(c2ccccc2Cl)c2c(C)[nH]c3ccccc23)cc1 (stereo not drawn) [Compound 31c]
84.2
Cc1[nH]c2ccccc2c1C(Nc1ccc(Cl)cc1)c1ccccc1Cl (stereo not drawn) [Compound 31b]
68.0
Clc1ccccc1C(Nc1ccccc1)c1c[nH]c2ccccc12 (stereo not drawn) [Compound 32b]
52.3
Cc1[nH]c2ccccc2c1C(Nc1ccc([N+](=O)[O-])cc1)c1ccccc1Cl (stereo not drawn) [Compound 31f]
4.9
Cc1[nH]c2ccccc2c1C(Nc1ccccc1)c1ccc([N+](=O)[O-])cc1 (stereo not drawn) [Compound 30f]
117.6

I = Cc1[nH]c2ccccc2c1C(Sc1ccccc1)c1ccccc1Cl (stereo not drawn) [Compound 32c]
II = Cc1[nH]c2ccccc2c1C(C)Nc1ccccc1 (stereo not drawn) [Compound 30g]
Input line: Given the two records I and II , choose the one whose Solubility value is lower. Give the chosen item's label as your response.
Output line: I

###

Study conditions: PAMPA
Endpoint label: Permeability Log(Pe) (cm/s)

COc1ccc(C(Nc2ccccc2)c2c(C)[nH]c3ccccc23)cc1 (centres unmarked) [Compound 30c]
−6.10
COc1ccc(NC(c2ccccc2Cl)c2c(C)[nH]c3ccccc23)cc1 (centres unmarked) [Compound 31c]
−6.30
Cc1[nH]c2ccccc2c1C(Nc1ccccc1)c1ccc(Cl)cc1 (centres unmarked) [Compound 30b]
−6.03
Cc1[nH]c2ccccc2c1C(Nc1ccccc1)c1ccc2ccccc2c1 (centres unmarked) [Compound 30h]
−6.30
Cc1[nH]c2ccccc2c1C(Nc1ccccc1)c1ccccc1Cl (centres unmarked) [Compound 31a]
−6.41

###

Study conditions: PAMPA
Endpoint label: Permeability Log(Pe) (cm/s)

Cn1cc(C(Nc2ccccc2)c2ccccc2Cl)c2ccccc21 (stereo not shown) [Compound 32a]
−6.58
COc1ccc(C(Nc2ccccn2)c2c(C)[nH]c3ccccc23)cc1 (stereo not shown) [Compound 11]
−6.25
Cc1[nH]c2ccccc2c1C(Nc1ccccn1)c1cccc(Br)c1 (stereo not shown) [Compound 14]
−6.11
Cc1[nH]c2ccccc2c1C(Nc1ccccc1)c1ccc(N(C)C)cc1 (stereo not shown) [Compound 30e]
−6.88
Clc1ccccc1C(Nc1ccccc1)c1c[nH]c2ccccc12 (stereo not shown) [Compound 32b]
−6.51
Cc1[nH]c2ccccc2c1C(Nc1ccccn1)c1ccc(F)cc1 (stereo not shown) [Compound 16]
−6.05
Cc1[nH]c2ccccc2c1C(Nc1ccccn1)c1cccc(F)c1 (stereo not shown) [Compound 19]
−5.99
Cc1[nH]c2ccccc2c1C(Nc1ccc(N(C)C)cc1)c1ccccc1Cl (stereo not shown) [Compound 31e]
−7.28
Cc1ccc(C(Nc2ccccc2)c2c(C)[nH]c3ccccc23)cc1 (stereo not shown) [Compound 30d]
−6.34
Cc1[nH]c2ccccc2c1C(Nc1ccccn1)c1ccc(Br)cc1 (stereo not shown) [Compound 15]
−6.01
Cc1[nH]c2ccccc2c1C(Nc1ccccn1)c1cccc(Cl)c1 (stereo not shown) [Compound 18]
−6.01
Cc1[nH]c2ccccc2c1C(Nc1ccccc1)c1ccc([N+](=O)[O-])cc1 (stereo not shown) [Compound 30f]
−6.08
Cc1ccc(C(Nc2ccccn2)c2c(C)[nH]c3ccccc23)cc1 (stereo not shown) [Compound 12]
−6.10
Cc1[nH]c2ccccc2c1C(Nc1ccc([N+](=O)[O-])cc1)c1ccccc1Cl (stereo not shown) [Compound 31f]
−7.60
COc1ccccc1NC(c1ccccc1Cl)c1c(C)[nH]c2ccccc12 (stereo not shown) [Compound 31h]
−6.22
Cc1ccc(NC(c2ccccc2Cl)c2c(C)[nH]c3ccccc23)cc1 (stereo not shown) [Compound 31d]
−6.45
Cc1[nH]c2ccccc2c1C(Nc1ccccn1)c1ccc(C(C)C)cc1 (stereo not shown) [Compound 17]
−6.12
COc1cccc(C(Nc2ccccn2)c2c(C)[nH]c3ccccc23)c1 (stereo not shown) [Compound 13]
−6.12
Cc1[nH]c2ccccc2c1C(Nc1ccc(Cl)cc1)c1ccccc1Cl (stereo not shown) [Compound 31b]
−6.24
Cc1[nH]c2ccccc2c1C(Nc1ccccc1)c1ccccc1 (stereo not shown) [Compound 30a]
−6.00
Cc1[nH]c2ccccc2c1C(Sc1ccccc1)c1ccccc1Cl (stereo not shown) [Compound 32c]
−6.89
Cc1[nH]c2ccccc2c1C(C)Nc1ccccc1 (stereo not shown) [Compound 30g]
−6.40
